- Test details: yeast display, Sf9 membrane polyspecificity reagent, FACS + sequencing; frameworks hold sequencing errors

| Residue string | polyreactivity (PSR sort gate) |
| --- | --- |
| QVQLVESGGGLVQAGGSLRLSCAASGRTFWWNAMAWYTQAPGKERELVAVISKRGGTTYYADSVKGRFTNSRDNAKNTVYLPMNSLKPEDTAVYVFAADQQSHYGYWGQGTQVTVSS | high polyreactivity |
| QVQLVESGGGLVQAGGSLRLTCAASVSIFSVYARGWYRQAPGKERELVADINIGGASTYYADSVKGRFTISRDNAKNTVFLQMNSVIPEDTAVYSCAKEYYEGYFPTFDYDYWGQGTQVNVSS | low polyreactivity |
| QVQLVESGGGLVQAGGSLRLSSPDSGYIFLPYTMGWYRQAHGKERELVASITWRGTNTYYADSVKGRFTISRDNAKNTVYLQMNSLKPEDTAGYYCTKVPTYWDPNYYYWGQGTQVTVSS | high polyreactivity |
| QVQLVESGGGLVQAGGSLRLSCAASGSIFPGYVMGWYRQAPGTERELVAAISWSGGSTYYADSVKGRFTISRDNAMNTVYLQLNSLKPEDTAVYYWAADYSYYHGPSRHKHDYWGQGTQVTVSS | low polyreactivity |
| QVQLVESGGGLVQAGGSLRLSCSASGSTFESNAMGWYRQAPGKERELVASISGSGGSTFYADSVKGRFTISRDNAKNTVYLQMNSLKPEDTAVYYCAAYKEPYYEEYGYWGQGTQVTVSS | low polyreactivity |
| QVQLVESGGGLVQAGGSLRLSCAASGRIIQRNTMGWYRQAPGKERELVAAISGSTGRTYYADSVKGRFTISRDNAKNTVYLQMNSLKPEDTAVYYCNTVGRSSSLSVFLIGYGYWGQGTQVTVSS | high polyreactivity |
| QVQLVESGGGLVQAGRSLRLSCAASGSIFRYYAMGWYRQAPGKERELVAAISSSGGSTYYADSVKGRFTISRDNAKNTVYLQMNSLKPEDTAVYYCAAVWLSGYGDNYWGQGTQVTVSS | high polyreactivity |
| QVQLVESGGGLVQAGGSLRLSCAASGRTFPPTAMGGYRLAPGKEWELVAAISPSGASTYYADSVKGRFTISRDNAKNTVYLQMNSLKPEDTAVYYCAARRFIASPRYKYDYWGQGTQVTVSS | high polyreactivity |
| QVQLVESAGGLVQAGGSLSLSCAASGITFYRYVMGWYRQAPGKERELVAAISVSGGRTYYADSVKGRFTISRDNAKNTVYLQMNSLKPEDTAVYYCAARWAGSKSATVQYDYWGQGTQVTVSS | high polyreactivity |
| QVQLVESGGGLVQAGGSLRLSCAASGSTFVWYGMGWYRQAPGKEREFVAAISTSGGRTYYADSVKGRFTISRDNAKNTVYLQMNSLKPEDTAVYYCATRPYFTYRWYDYWGQGTQVTVSS | high polyreactivity |
| QVQLVESGGGLVQAGGSLRLSCAASGLTIVNYAMGWYRQAPGKERELVAAITVNGGRTYYADSVKGRFTISRDNAKNTVYLQMNSLKPEDTAVYYCAAVYYRHWYTYSSDYWGQGTQVTVSS | high polyreactivity |
| QVQLVESGGGLVQAGGSLRLSCAASGSTFLFNVMGWYRQAPGKERELVAAITSGASTYYADSVKGRFTISRDNAKNTVYLQMNSLEPEDTAVYYCAVDYSFRYDYVQRYYYWGQGTQVTVSS | high polyreactivity |
| QVQLVESGGGLVQAGGSLRLSCAASGRIFWYVLGWYRQAPGNERELVATITSSGGSSYYADSVKGRFTISRDNAKNTVYLQMNSLKPEDTAVNYCAVDLQTLGADRIITVYVGEDYWGQGTQVTVSS | low polyreactivity |
| QVQLVESGGGLVQAGGSLRLSCAASGFILKYNAMGWYRQAPGKERELVAAISSNGGRTYYADSVKVRFTISRDNAKNTVYLQMKSLKPEDTAVDYCAAGRLQPVLGGYWGQGSQVTVSS | low polyreactivity |
| QVQLVESGGGLVQAGGSLRLSCAASGSTFAIYAMGWYRQAPGKERELVAAITRGSTSYADSVKGRFTISRDNAKNTVYLQMNCLKPEDTAVYYCAAEYFLAQVYIYGYWGQGTQVTVSS | high polyreactivity |
| QVQLVESGGGLVQAGGSLRLSCAASGRILSVYAMGWYRQAPGKERELDAGISKRGGRTYYADSVKGRFTISRDNAKNTVYLQMKSLTPEDTAVYYCAADYSSYWGRDYWGQGTQVTVSS | high polyreactivity |
| QVQLVESGGGLVQAGGSLRLSCAASGFIFERYTMGWYRQAPGKERELVAAISDSGGSTYYADSVKGRFTISRDNAKNTVYLQMNSLKPEDTAVYYCATTQYTTYGRRYYWGQGTQVTVSS | high polyreactivity |
| QVQLVESGGGLVQAGGSLRLSCAASGSTFGDNAMGWYRQAPGKERELVAVITSDTSTYYADSVKGRFTISRDNAKNTVYLQMNSLKPEDTAVYYCAADWGGLWFWYEYWGQGTQVTVSS | low polyreactivity |
| QVQLVESGGGLVQAGGSLRLSCAASGGNFKRYAMGWYRQAPGKERELVAAISGRGGSTYYADSVKGRFTISRDYAKNTVYLQMNSLKPEDTAVYYCDAYWRYRTDMDYWGQGTQVTVSS | high polyreactivity |
| QVQLVESGGGLVQAGGSLRLSCAASGSTFKRYAMGWYRQAPGKERALVASISSGGSTNYADSVKGRFTISRDNAKNTVYLQMHSLKPEDTAVYYCAVSYRSFRYYWERYYSWGQGTQVTVSS | high polyreactivity |
| QVQVVESGGGLVQAGGSLRLSCAASGSTFRYYAMGWYRQAAGKERELVASITVSVGRTYYADSVKGRFTISRDYAKNTVYLQMNILKPEDTAVYYCAAPRGRLVRPPKYYYWGQGTQLTVSS | high polyreactivity |
